biological target: KDR (VEGFR2) (Homo sapiens (Human), UniProt P35968)
Sequence (P35968 20-1356): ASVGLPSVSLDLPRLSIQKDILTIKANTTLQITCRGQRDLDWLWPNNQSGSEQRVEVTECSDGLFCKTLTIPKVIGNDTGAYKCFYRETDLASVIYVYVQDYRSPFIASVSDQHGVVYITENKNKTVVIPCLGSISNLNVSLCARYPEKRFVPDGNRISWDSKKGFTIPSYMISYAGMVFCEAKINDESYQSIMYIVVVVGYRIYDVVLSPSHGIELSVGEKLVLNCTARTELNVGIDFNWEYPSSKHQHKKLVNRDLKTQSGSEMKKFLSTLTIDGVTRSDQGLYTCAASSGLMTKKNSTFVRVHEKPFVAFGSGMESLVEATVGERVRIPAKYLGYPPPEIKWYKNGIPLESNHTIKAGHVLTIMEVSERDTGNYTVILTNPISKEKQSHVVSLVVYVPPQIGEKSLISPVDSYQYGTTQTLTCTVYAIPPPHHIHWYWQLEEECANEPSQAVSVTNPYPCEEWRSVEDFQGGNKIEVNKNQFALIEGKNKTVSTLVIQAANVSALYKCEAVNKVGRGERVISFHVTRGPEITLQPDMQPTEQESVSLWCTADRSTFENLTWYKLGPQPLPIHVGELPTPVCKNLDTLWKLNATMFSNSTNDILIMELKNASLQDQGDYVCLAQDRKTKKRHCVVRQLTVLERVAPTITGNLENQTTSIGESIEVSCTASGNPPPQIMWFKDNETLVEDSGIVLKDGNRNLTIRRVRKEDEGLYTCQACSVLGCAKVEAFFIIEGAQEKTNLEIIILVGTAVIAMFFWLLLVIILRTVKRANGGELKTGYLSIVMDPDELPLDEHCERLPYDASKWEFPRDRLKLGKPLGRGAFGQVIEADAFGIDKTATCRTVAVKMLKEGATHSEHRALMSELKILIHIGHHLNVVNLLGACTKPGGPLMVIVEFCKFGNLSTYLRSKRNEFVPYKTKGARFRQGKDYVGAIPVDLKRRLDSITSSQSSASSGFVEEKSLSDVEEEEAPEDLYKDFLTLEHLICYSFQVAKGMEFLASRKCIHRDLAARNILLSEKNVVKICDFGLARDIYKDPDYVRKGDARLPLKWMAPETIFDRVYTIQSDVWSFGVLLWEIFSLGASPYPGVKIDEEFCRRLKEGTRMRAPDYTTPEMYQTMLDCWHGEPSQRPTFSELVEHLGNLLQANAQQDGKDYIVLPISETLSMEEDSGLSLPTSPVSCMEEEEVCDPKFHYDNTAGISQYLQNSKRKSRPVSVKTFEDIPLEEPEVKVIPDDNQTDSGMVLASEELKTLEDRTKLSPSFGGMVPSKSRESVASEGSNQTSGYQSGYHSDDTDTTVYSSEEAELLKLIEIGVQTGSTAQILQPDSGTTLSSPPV
pIC50: −log10 of the molar value.
assay-metric: pIC50

{"columns": ["compound", "pIC50"],
 "data": [
  ["COc1cc(Oc2ccc3c(=O)c4cc(C)cc(OCCN(C)C)c4oc3c2)cnc1OC [Example 9]", "< 5.00"],
  ["Cc1cc(OCCN(C)C)c2oc3cc(Oc4ccc(NCC(=O)NC5CCCC5)nc4)ccc3c(=O)c2c1 [Example 25]", "< 5.00"]
]}

Tested on KDR (VEGFR2) (Homo sapiens (Human), UniProt P35968), the item Cc1cc(OCCN(C)C)cc2c(=O)c3ccc(Oc4ccc(CCC(=O)NC5CCCC5)nc4)cc3oc12 [Example 45] showed pIC50 equal to 5.00 to 6.00

###

Each record here notes measured IC50.
target: CSF-1R (FMS) (Homo sapiens (Human)); assay: SelectScreen Z'-LYTE kinase assay, Assay 336 for CSF-1R (FMS); format: biochemical; conditions: Z'-LYTE activity assay, 500 μM ATP (Km app); read-out: CSF-1R Enzyme IC50

Some molecules with known IC50 results, for comparison:
{"columns": ["entry-smiles", "assay-metric", "value"],
 "data": [
  ["Cc1cc(OCCCN2CCOCC2)c2oc3cc(Oc4ccc(CCC(=O)NC5CCCC5)nc4)ccc3c(=O)c2c1", "IC50", "< 100 nM"],
  ["Cc1cc(OCCN(C)C)c2oc3cc(Oc4cccnc4)ccc3c(=O)c2c1", "IC50", "100 to 1000 nM"]
]}

Given item `CCN(CC)CCOc1cc(C)cc2c(=O)c3ccc(Oc4ccc(CCC(=O)NC5CCCC5)nc4)cc3oc12` , the value recorded as its IC50 is < 100 nM

// sample `Cc1cc(OCCN(C)C)c2oc3cc(Oc4ccc(CCC(=O)Nc5cccnc5)nc4)ccc3c(=O)c2c1` , its IC50 was < 100 nM

For record `COc1cc(OCCN(C)C)cc2c(=O)c3ccc(Oc4ccc(CCC(=O)NC5CCCC5)nc4)cc3oc12` the listed IC50 is < 100 nM

Memo: `COc1ccc(CNc2ccc(Oc3ccc4c(=O)c5cc(C)cc(OCCN(C)C)c5oc4c3)cn2)cn1` , reported IC50: < 100 nM

molecule `CN(C)CCOc1ccc2c(=O)c3ccc(Oc4ccc(CCC(=O)NC5CCCC5)nc4)cc3oc2c1` , IC50 observed: < 100 nM

The reported value for `Cc1ccc2c(c1)c(=O)c1ccc(Sc3ccccc3)cc1n2CCCN(C)C` in terms of IC50 is 1000 to 10000 nM

// field: IC50; key: `COc1ccc(COc2ncc(Oc3ccc4c(=O)c5cc(C)cc(OCCN(C)C)c5oc4c3)cc2OC)cc1` ; value = < 100 nM

IC50 in this record for `Cc1cc(OCCN2C[C@@H](C)N[C@@H](C)C2)c2oc3cc(Oc4ccc(CCC(=O)NC5CCCC5)nc4)ccc3c(=O)c2c1` : < 100 nM

Form: molecule = `Cc1cc(OCCN(C)C)c2sc3cc(Oc4cccc(C(=O)Nc5ccccc5)c4)ccc3c(=O)c2c1` ; IC50 = < 100 nM

###

Quick record of IC50 values for KDR (VEGFR2) (Homo sapiens (Human)).

{"columns": ["entry-smiles", "IC50"],
 "data": [
  ["CNCCOc1cc(C)cc2c(=O)c3ccc(Oc4ccc(CCC(=O)NC5CCCC5)nc4)cc3oc12", "> 10 µM"],
  ["Cc1cc(OCCN(C)C)c2oc3cc(Oc4ccc(NCc5ccc(OC(F)(F)F)cc5)nc4)ccc3c(=O)c2c1", "> 10 µM"],
  ["Cc1cc(OCCCCN(C)C)c2oc3cc(Oc4ccccc4)ccc3c(=O)c2c1", "1 to 10 µM"],
  ["Cc1cc(OCCCN2CCOCC2)c2oc3cc(Oc4ccccc4)ccc3c(=O)c2c1", "> 10 µM"],
  ["CN(C)CCOc1cccc2c(=O)c3ccc(Oc4cccc(C(=O)Nc5ccccc5)c4)cc3oc12", "1 to 10 µM"]
]}

Recorded result, `Cc1cc(OCCN(C)C)c2oc3cc(Oc4ccc(N)nc4)ccc3c(=O)c2c1` , IC50: > 10 µM

IC50 for `Cc1cc(OCCN2CCN(CC(F)(F)F)CC2)c2oc3cc(Oc4ccc(CCC(=O)NC5CCCC5)nc4)ccc3c(=O)c2c1` is > 10 µM

Recorded result, `Cc1cc(OCCCN(C)C)c2oc3cc(Oc4ccccc4)ccc3c(=O)c2c1` , IC50: 1 to 10 µM

###

biological target: CSF-1R (FMS) (Homo sapiens (Human)); test: SelectScreen Z'-LYTE kinase assay, Assay 336 for CSF-1R (FMS); assay type: biochemical; settings: Z'-LYTE activity assay, 500 μM ATP (Km app); read-out: CSF-1R Enzyme IC50
assay-metric: IC50

{"columns": ["molecule", "tested-target", "IC50"],
 "data": [
  ["Cc1cc(OCCCN2C[C@@H](C)N(C)[C@@H](C)C2)c2oc3cc(Oc4ccc(CCC(=O)NC5CCCC5)nc4)ccc3c(=O)c2c1", "CSF-1R (FMS) (Homo sapiens (Human))", "< 100 nM"],
  ["CN(C)CCOc1cc(Cl)cc2c(=O)c3ccc(Oc4cccc(C(=O)Nc5ccccc5)c4)cc3oc12", "CSF-1R (FMS) (Homo sapiens (Human))", "< 100 nM"],
  ["Cc1cc(OCCCN(C)C)c2oc3cc(Oc4ccc(CCC(=O)NC5CCCC5)nc4)ccc3c(=O)c2c1", "CSF-1R (FMS) (Homo sapiens (Human))", "< 100 nM"]
]}

Note to self: IC50 of `Cc1cc(OCCN(C(C)C)C(C)C)c2oc3cc(Oc4ccc(CCC(=O)NC5CCCC5)nc4)ccc3c(=O)c2c1` with CSF-1R (FMS) (Homo sapiens (Human)) was < 100 nM

The value of IC50 recorded for `CN(C)CCOc1ccc2oc3cc(Oc4ccc(CCC(=O)NC5CCCC5)nc4)ccc3c(=O)c2c1` when tested on CSF-1R (FMS) (Homo sapiens (Human)) reads < 100 nM

###

biological target: CSF-1R (FMS) (Homo sapiens (Human)); experiment: SelectScreen Z'-LYTE kinase assay, Assay 336 for CSF-1R (FMS); assay type: biochemical; details: Z'-LYTE activity assay, 500 μM ATP (Km app); read-out: CSF-1R Enzyme IC50
pIC50: −log10 of the molar value.
Quick reference for pIC50 among some compounds

Field: example entries. Status: answers known.
{"columns": ["entry-smiles", "assay-metric", "value"],
 "data": [
  ["Cc1cc(OC[C@H]2CCCN2C)c2oc3cc(Oc4ccc(CCC(=O)NC5CCCC5)nc4)ccc3c(=O)c2c1", "pIC50", "> 7.00"],
  ["CN(C)CCOc1cc(Cl)cc2c(=O)c3ccc(Oc4ccccc4)cc3oc12", "pIC50", "5.00 to 6.00"],
  ["COc1ccc(COc2ccc(Oc3ccc4c(=O)c5cc(C)cc(OCCN(C)C)c5oc4c3)cn2)cn1", "pIC50", "> 7.00"],
  ["Cc1cc(OCCN(C)C)c2oc3cc(Oc4ccc(NCc5ccc(OC(F)(F)F)cc5)nc4)ccc3c(=O)c2c1", "pIC50", "> 7.00"],
  ["COc1ccc(CCc2ccc(Oc3ccc4c(=O)c5cc(C)cc(OCCN(C)C)c5oc4c3)cn2)cc1", "pIC50", "> 7.00"]
]}

Sure, the documented pIC50 for `Cc1cc(OCCC2CCN(C)CC2)c2oc3cc(Oc4ccccc4)ccc3c(=O)c2c1` is 6.00 to 7.00

The compound listed as `Cc1cc(OCCN2C[C@@H](C)N(C)[C@@H](C)C2)c2oc3cc(Oc4ccc(CCC(=O)NC5CCCC5)nc4)ccc3c(=O)c2c1` has a reported pIC50 of > 7.00

Field pIC50 (entry `Cc1cc(OCC2CCN(C)CC2)c2oc3cc(Oc4ccccc4)ccc3c(=O)c2c1` ) reads 6.00 to 7.00

###

target: CSF-1R (FMS) (Homo sapiens (Human), UniProt P07333); experiment: SelectScreen Z'-LYTE kinase assay, Assay 336 for CSF-1R (FMS); format: biochemical; conditions: Z'-LYTE activity assay, 500 μM ATP (Km app); read-out: CSF-1R Enzyme IC50
Sequence (P07333 20-972): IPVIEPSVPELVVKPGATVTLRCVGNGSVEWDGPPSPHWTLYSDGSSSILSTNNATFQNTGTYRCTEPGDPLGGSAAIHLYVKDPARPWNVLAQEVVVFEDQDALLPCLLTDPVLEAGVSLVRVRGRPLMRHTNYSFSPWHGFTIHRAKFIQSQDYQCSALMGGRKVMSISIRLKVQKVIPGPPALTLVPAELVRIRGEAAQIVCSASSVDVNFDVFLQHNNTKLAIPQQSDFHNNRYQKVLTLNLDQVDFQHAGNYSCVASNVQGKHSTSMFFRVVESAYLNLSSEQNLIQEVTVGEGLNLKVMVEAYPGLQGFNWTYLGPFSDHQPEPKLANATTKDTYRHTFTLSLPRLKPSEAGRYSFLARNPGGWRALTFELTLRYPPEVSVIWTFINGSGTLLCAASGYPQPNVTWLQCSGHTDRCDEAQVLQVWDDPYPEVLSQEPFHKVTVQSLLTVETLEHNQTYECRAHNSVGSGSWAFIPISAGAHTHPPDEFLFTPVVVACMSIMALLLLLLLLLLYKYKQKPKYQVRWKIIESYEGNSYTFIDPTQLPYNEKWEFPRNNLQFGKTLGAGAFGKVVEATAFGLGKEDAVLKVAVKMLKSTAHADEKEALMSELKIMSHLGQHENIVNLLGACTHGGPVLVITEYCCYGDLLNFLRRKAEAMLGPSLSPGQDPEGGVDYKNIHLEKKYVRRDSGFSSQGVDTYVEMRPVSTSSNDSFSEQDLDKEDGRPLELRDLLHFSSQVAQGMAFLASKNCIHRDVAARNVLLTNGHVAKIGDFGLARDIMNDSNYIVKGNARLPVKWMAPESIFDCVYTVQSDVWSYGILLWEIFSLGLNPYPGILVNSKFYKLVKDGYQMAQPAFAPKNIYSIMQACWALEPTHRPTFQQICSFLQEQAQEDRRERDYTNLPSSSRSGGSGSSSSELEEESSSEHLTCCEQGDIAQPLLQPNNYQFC
pIC50: −log10 of the molar value.
Reported pIC50 values are given for each entry in this list.

Below: 6 molecules and their reported pIC50.
{"columns": ["molecule", "assay-metric", "value"],
 "data": [
  ["Cc1cc(OCCN2CCCCC2)c2oc3cc(Oc4ccc(CCC(=O)NC5CCCC5)nc4)ccc3c(=O)c2c1", "pIC50", "> 7.00"],
  ["Cc1cc(OCCN(C)C)c2oc3cc(Oc4ccc(CCC(=O)N5CCOCC5)nc4)ccc3c(=O)c2c1", "pIC50", "> 7.00"],
  ["Cc1cc(OCCN2CCOCC2)c2oc3cc(Oc4ccc(CCC(=O)NC5CCCC5)nc4)ccc3c(=O)c2c1", "pIC50", "> 7.00"],
  ["Cc1cc(OC[C@@H]2CCCN2C)c2oc3cc(Oc4ccc(CCC(=O)NC5CCCC5)nc4)ccc3c(=O)c2c1", "pIC50", "> 7.00"],
  ["Cc1cc(OCCN(C)C)c2oc3cc(Oc4ccc(CCC(=O)NC5CCCC5)nc4)ccc3c(=O)c2c1", "pIC50", "> 7.00"],
  ["Cc1cc(OCCN(C)C)c2oc3cc(Oc4ccc(CCC(=O)N5CCN(C)CC5)nc4)ccc3c(=O)c2c1", "pIC50", "> 7.00"]
]}

Entry `Cc1cc(OCCCN(C)C)c2oc3cc(Oc4ccccc4)ccc3c(=O)c2c1` ; pIC50 = 6.00 to 7.00

// `Cc1cc(OCCN(C)C)c2oc3cc(Oc4ccc(N)nc4)ccc3c(=O)c2c1` : pIC50 value = 6.00 to 7.00

Summary for this molecule, `Cc1cc(OCCN(C)C)c2sc3cc(Oc4ccccc4)ccc3c(=O)c2c1` : pIC50 is 6.00 to 7.00

Notebook: `COc1ccc(Cc2ccc3c(=O)c4cc(C)cc(OCCN(C)C)c4oc3c2)cn1` , pIC50 read as 6.00 to 7.00

So for `Cc1cc(OCCN(C)C)c2oc3cc(Oc4ccc(OCc5ccc(C(F)(F)F)nc5)nc4)ccc3c(=O)c2c1` , the logged pIC50 turned out to be > 7.00

Quick note, pIC50 for `Cc1cc(OCCN(C)C)c2sc3cc(Oc4ccc(CCC(=O)NC5CCCC5)nc4)ccc3c(=O)c2c1` landed at > 7.00

# pIC50 (molecule: Cc1cc(OC2CCN(C)C2)c2oc3cc(Oc4ccc(CCC(=O)NC5CCCC5)nc4)ccc3c(=O)c2c1 (stereo not shown) ) is > 7.00

So, `COc1ccc(Oc2ccc3c(=O)c4cc(C)cc(OCCN(C)C)c4oc3c2)cn1` ? Its pIC50 was 6.00 to 7.00

Entry `Cc1cc(OCCN)c2oc3cc(Oc4ccc(CCC(=O)NC5CCCC5)nc4)ccc3c(=O)c2c1` — recorded pIC50 = > 7.00

Just so you know, measured pIC50 for `COc1ccc(CCc2ccc(Oc3ccc4c(=O)c5cccc(OCCN(C)C)c5oc4c3)cn2)cc1` came out at 6.00 to 7.00
